- System: human brain endothelial cells (HBEC)
- protocol description: MTT Assay for Determining Toxicity, HBEC
- Type: cell-based
- condition description: Endothelial cell, MTT, serum-free, 2 hours with compound, read-out: Viability IC50 HBEC
value kind: IC50 (µM)
All answers are understood in µM, so give the number only.

What does the data say about its IC50? Entry: O=C1C(=O)c2cccnc2-c2ncccc21
1

---

- test system: PTP1B (Homo sapiens)
- Sequence (P18031 whole entry, species assumed): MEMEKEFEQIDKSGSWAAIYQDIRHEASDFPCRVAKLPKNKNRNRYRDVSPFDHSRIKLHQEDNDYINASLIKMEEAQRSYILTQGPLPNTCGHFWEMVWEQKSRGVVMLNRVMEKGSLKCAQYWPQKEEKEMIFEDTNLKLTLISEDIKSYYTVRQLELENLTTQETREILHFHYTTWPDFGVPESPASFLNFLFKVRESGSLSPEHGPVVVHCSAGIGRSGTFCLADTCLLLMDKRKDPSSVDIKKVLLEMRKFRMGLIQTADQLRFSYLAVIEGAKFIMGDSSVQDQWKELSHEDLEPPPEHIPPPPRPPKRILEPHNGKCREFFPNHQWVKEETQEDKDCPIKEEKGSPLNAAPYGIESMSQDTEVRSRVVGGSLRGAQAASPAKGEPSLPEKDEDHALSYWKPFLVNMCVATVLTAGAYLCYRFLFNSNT
- protocol description: PTP1B Inhibition Assay: IC50 Determinations
- Type: biochemical
- condition description: Table 29; read-out: PTP1B IC50
# reported pIC50; entries follow
pIC50 is a log-scale quantity: -log10 of the concentration expressed in molar.

Examples with answers:
{"mol smiles": "O=C1Nc2ccc([N+](=O)[O-])cc2C1=O", "measured number": 4.79}
{"mol smiles": "Cc1ccc(C(=O)Nc2ccc3c(c2)C(=O)C(=O)N3)cc1", "measured number": 4.96}
{"mol smiles": "Cc1ccc(C)c(OCC(=O)Nc2nonc2NC(=O)COc2cc(C)ccc2C)c1", "measured number": 5.24}
{"mol smiles": "CC(C)c1ccccc1OCC(=O)Nc1ccc2c(c1)C(=O)C(=O)c1ccccc1-2", "measured number": 6.17}
{"mol smiles": "CC(C)c1ccccc1OCC(=O)Nc1nonc1NC(=O)COc1ccccc1C(C)C", "measured number": 4.87}
{"mol smiles": "O=C1C(=O)c2cc(NS(=O)(=O)c3ccc([N+](=O)[O-])cc3)ccc2-c2ccccc21", "measured number": 6.48}

What does the data say about its pIC50? Entry: COc1ccc(OCC(=O)Nc2ccc3c(c2)C(=O)C(=O)c2ccccc2-3)cc1
5.52

What does the data say about its pIC50? Entry: O=C(COc1ccccc1)Nc1ccc2c(c1)C(=O)C(=O)N2
6.53

What does the data say about its pIC50? Entry: O=C1C(=O)N(Cc2ccc(Cl)cc2Cl)c2ccc([N+](=O)[O-])cc21
5.96

---

- test system: PTEN (Homo sapiens)
- Sequence (P60484 whole entry, species assumed): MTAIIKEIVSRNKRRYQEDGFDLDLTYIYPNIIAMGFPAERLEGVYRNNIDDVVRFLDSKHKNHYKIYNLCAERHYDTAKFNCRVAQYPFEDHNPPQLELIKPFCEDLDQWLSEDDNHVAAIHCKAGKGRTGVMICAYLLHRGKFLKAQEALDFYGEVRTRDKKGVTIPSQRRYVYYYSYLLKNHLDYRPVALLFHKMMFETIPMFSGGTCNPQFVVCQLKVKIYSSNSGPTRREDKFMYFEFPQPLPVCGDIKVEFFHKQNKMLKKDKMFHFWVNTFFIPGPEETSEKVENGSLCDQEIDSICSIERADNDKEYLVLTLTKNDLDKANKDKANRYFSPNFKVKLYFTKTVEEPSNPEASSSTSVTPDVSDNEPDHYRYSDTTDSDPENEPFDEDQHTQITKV
- protocol description: PTEN Inhibition Assay: IC50 Determinations
- Format: biochemical
- condition description: Table 29; read-out: PTEN IC50
value kind: pIC50
pIC50 is a log-scale quantity: -log10 of the concentration expressed in molar.

{"compound": "O=C1Nc2ccc(Br)cc2C1O (stereo not drawn)", "pIC50": 4.50}

What does the data say about its pIC50? Entry: Cc1cccc(-n2cnc(C(=O)NNC(=O)c3ccc(C(C)(C)C)cc3)c2)n1
4.30

What does the data say about its pIC50? Entry: O=C1C(=O)c2cccnc2-c2ncccc21
5.30

What does the data say about its pIC50? Entry: O=C1Nc2ccc(I)cc2C1=O
4.47

What does the data say about its pIC50? Entry: CC(C)(C)c1ccc(S(=O)(=O)Nc2ccc3c(c2)C(=O)C(=O)c2ccccc2-3)cc1
6.57

---

- test system: UniProt:P60484
- protocol description: PTEN Inhibition Assay: General Screening
- Assay type: biochemical
- condition description: 250 uM; Table 27 isatins; read-out: % Inhibition @250 uM
value kind: inhibition at 250 µM (%)
All answers are understood in %, so give the number only.

{"molecule": "O=C1Nc2ccc(Br)cc2C1O (centres unmarked) [SF1818-000]", "measured number": 97.8}
{"molecule": "O=C1Nc2c(Cl)ccc(Cl)c2C1=O [SF1822-000]", "measured number": 97.3}
{"molecule": "O=C(COc1ccccc1)Nc1ccc2c(c1)C(=O)C(=O)N2 [SF1781-000]", "measured number": 97.8}
{"molecule": "O=C1Nc2ccc(F)cc2C1=O [SF1820-000]", "measured number": 94.6}

What does the data say about its inhibition at 250 µM? Entry: O=C(CCc1ccccc1[N+](=O)[O-])Nc1ccc2c(c1)C(=O)C(=O)N2 [SF1812-000]
40.5

What does the data say about its inhibition at 250 µM? Entry: O=C1C(=O)N(Cc2ccc(Cl)cc2Cl)c2ccc([N+](=O)[O-])cc21 [SF1783-000]
97.8

What does the data say about its inhibition at 250 µM? Entry: O=C1Nc2ccc(Br)cc2C1=O [SF1814-000]
97.6

What does the data say about its inhibition at 250 µM? Entry: O=C1Nc2ccc(I)cc2C1=O [SF1819-000]
96
